# METHOD: DDI studies of 3D regimen with HIV-1 N(t)RTIs, NNRTIs and INSTI
# Format: in vivo, human
# EXPERIMENTAL PARAMETERS: both, human, in vivo

COMPOUND STRING	exposures (Cmax and AUCτ), % change
CC(C)c1nc(CN(C)C(=O)N[C@H](C(=O)N[C@@H](Cc2ccccc2)C[C@H](O)[C@H](Cc2ccccc2)NC(=O)OCc2cncs2)C(C)C)cs1	±17%
